molecular target: PIK3CA (human)
readout: IC50

1) Cc1nc2ncc(-c3ccc4c(c3)CN(c3ncnc5c3CCC(C(C)O)C5)CCO4)cc2[nH]1 (centres undefined); 0.01 to 0.05 µM
2) CC1(C)CCc2ncnc(N3CCOc4ccc(-c5cnc(N)c(S(=O)(=O)N6CCC(N)C6)c5)cc4C3)c2C1 (centres undefined); 0.01 to 0.05 µM
3) Cc1nc2ccc(-c3ccc4c(c3)CN(c3ncnc5cc(Br)ccc35)CCO4)cc2[nH]1; 0.05 to 0.25 µM
4) CC1(C)CCc2ncnc(N3CCOc4ccc(-c5cnc6sc(N)nc6c5)cc4C3)c2C1; 0.01 to 0.05 µM

* * *

target: UniProt P42336
pIC50: −log10 of the molar value.
readout: pIC50

1. CC1(C)CCc2ncnc(N3CCOc4ccc(-c5cnc(N)c(S(=O)(=O)N6CCC(C)(N)C6)c5)cc4C3)c2C1 (stereo not given); 7.30 to 8.00
2. Cc1nc(N)sc1-c1ccc2c(c1)CN(c1ncnc(C)c1Cc1ccc(F)cc1)CCO2; 6.00 to 6.60
3. Cc1nc2cc(-c3ccc4c(c3)CN(c3nc([C@H]5CCCN5)nc5c3CC(C)(C)CC5)CCO4)ccc2[nH]1; 7.30 to 8.00
4. Cc1ncc(-c2ccc3c(c2)CN(c2ncnc4c2CC(C)(C)CC4)CCO3)cc1NS(C)(=O)=O; 7.30 to 8.00
5. COc1ccc2ncnc(N3CCOc4ccc(-c5ccc6nc(C)[nH]c6c5)cc4C3)c2c1; 6.60 to 7.30
6. Cc1nc2ccc(-c3ccc4c(c3)CN(c3ncnc5cc(F)c(F)cc35)CCO4)cc2[nH]1; 6.60 to 7.30
7. COc1ccc2c(N3CCOc4ccc(-c5cnc(NC(C)=O)s5)cc4C3)nc(C)nc2c1; 7.30 to 8.00
8. COc1c(Br)ccc2c(N3CCOc4ccc(-c5ccc6nc(C)[nH]c6c5)cc4C3)ncnc12; 7.30 to 8.00
9. COc1ccc2c(N3CCOc4ccc(-c5cccc(C(=O)O)c5)cc4C3)nc(C)nc2c1; 6.00 to 6.60
10. CC1(C)CCc2ncnc(N3CCOc4ccc(-c5cnc(N)c(S(=O)(=O)N6CC(F)(F)C6)c5)cc4C3)c2C1; 6.60 to 7.30

* * *

Let's go through some recorded IC50 values for PIK3CA (human) (UniProt P42336) together.
readout: IC50

1) Cc1ccc2c(N3CCOc4ccc(-c5ccc6nc(C)[nH]c6c5)cc4C3)ncnc2c1; 10 to 50 nM
2) CC[C@H]1CCc2c(nc(C)nc2N2CCOc3ccc(-c4cnc5nc(C)[nH]c5c4)cc3C2)C1; ≤ 10 nM
3) Cc1nc2ccc(-c3ccc4c(c3)CN(c3nc(CNC5CCC5)nc5c3CC(C)(C)CC5)CCO4)cc2[nH]1; 10 to 50 nM
4) COC(=O)Nc1nc2ccc(-c3ccc4c(c3)CN(c3ncccc3C)CCO4)cc2[nH]1; 50 to 250 nM
5) CN(c1cc(-c2ccc3c(c2)CN(c2ncnc4c2CC(C)(C)CC4)CCO3)cnc1Cl)S(C)(=O)=O; 250 to 1000 nM
6) Cc1nc2ncc(-c3ccc4c(c3)CN(c3ncncc3C)CCO4)cc2[nH]1; 250 to 1000 nM
7) Cc1nc2ccc(-c3ccc4c(c3)CN(c3ncnc5ccc(OCC#N)cc35)CCO4)cc2[nH]1; 10 to 50 nM
8) COc1ccc(-c2ccc3c(c2)CN(c2nc(CN(C)C)nc4c2CC(C)(C)CC4)CCO3)cc1S(C)(=O)=O; 10 to 50 nM
9) COCCOc1ccc(-c2ccc3c(c2)CN(c2nc(CN(C)C)nc4c2CC(C)(C)CC4)CCO3)cc1OC; 50 to 250 nM
10) Cn1ccc2cc(-c3ccc4c(c3)CN(c3ccnc5ccccc35)CCO4)cnc21; 250 to 1000 nM
11) Cc1nc2ncc(-c3ccc4c(c3)CN(c3nc(CN[C@@H](C)C(=O)O)nc5c3CC(C)(C)CC5)CCO4)cc2[nH]1; ≤ 10 nM
12) Cc1nc2ccc(-c3ccc4c(c3)CN(c3cc(C(C)C)ncn3)CCO4)cc2[nH]1; 250 to 1000 nM
13) COc1ccccc1Cc1c(C)ncnc1N1CCOc2ccc(-c3ccc4nc(C)[nH]c4c3)cc2C1; 50 to 250 nM
14) CCc1c(C(C)C)ncnc1N1CCOc2ccc(-c3ccc4nc(C)[nH]c4c3)cc2C1; 250 to 1000 nM
15) CC(O)c1nc2cc(-c3ccc4c(c3)CN(c3ncnc5c3CC(C)(C)CC5)CCO4)cnc2[nH]1 (stereo unspecified); 50 to 250 nM
16) CCN(C)S(=O)(=O)c1cc(-c2ccc3c(c2)CN(c2ncnc4c2CC(C)(C)CC4)CCO3)cnc1N; 50 to 250 nM
